Below is a list of entries, each paired with its recorded EC50 value.
# TESTED TARGET: F508delCFTR (Homo sapiens, UniProt P13569, DEL508-508)
# Construct: expressed in transfected cells; host or cells: CFBE41o- (human lung derived epithelial cell line), doxycycline-inducible expression
# Sequence (P13569 with tags, fused parts or gaps DEL508-508): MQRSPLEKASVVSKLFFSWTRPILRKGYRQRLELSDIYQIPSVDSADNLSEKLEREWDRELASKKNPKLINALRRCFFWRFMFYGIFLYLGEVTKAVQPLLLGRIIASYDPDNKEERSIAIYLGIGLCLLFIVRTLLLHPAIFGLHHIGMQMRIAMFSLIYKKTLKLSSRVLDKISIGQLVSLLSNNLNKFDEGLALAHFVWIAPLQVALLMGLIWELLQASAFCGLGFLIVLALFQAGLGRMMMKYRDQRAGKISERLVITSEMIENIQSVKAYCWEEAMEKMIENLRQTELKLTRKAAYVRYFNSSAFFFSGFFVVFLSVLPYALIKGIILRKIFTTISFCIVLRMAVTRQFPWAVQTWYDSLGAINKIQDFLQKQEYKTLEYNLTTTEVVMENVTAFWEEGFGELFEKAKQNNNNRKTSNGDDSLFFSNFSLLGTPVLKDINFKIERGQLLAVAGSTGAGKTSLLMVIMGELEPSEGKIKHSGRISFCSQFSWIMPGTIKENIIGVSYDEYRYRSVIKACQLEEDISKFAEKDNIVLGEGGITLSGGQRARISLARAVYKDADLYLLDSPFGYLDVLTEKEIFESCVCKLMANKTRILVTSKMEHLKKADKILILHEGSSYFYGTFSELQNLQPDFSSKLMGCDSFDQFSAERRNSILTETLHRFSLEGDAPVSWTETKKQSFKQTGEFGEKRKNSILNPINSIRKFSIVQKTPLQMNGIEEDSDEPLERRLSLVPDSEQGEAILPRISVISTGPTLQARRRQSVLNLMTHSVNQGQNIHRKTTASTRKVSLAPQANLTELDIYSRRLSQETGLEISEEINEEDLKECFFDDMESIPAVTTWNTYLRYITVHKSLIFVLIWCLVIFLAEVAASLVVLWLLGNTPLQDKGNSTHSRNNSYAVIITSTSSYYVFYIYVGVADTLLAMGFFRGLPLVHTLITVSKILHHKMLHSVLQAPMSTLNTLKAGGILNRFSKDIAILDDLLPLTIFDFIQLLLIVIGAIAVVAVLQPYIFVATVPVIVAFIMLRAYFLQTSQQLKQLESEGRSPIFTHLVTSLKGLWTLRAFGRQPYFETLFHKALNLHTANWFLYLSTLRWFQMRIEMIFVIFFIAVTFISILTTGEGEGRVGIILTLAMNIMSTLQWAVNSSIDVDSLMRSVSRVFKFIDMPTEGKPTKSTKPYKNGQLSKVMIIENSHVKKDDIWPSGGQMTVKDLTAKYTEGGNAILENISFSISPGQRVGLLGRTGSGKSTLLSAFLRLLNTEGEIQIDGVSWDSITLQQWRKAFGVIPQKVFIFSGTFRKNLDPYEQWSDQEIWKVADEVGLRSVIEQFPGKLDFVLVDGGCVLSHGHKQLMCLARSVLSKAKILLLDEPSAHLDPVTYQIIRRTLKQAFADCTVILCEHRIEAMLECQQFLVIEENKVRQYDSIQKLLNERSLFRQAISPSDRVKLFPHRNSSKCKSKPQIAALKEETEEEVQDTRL
# EXPERIMENT: Cell Surface Expression-Horse Radish Peroxidase (CSE-HRP) assay
# Assay type: cell-based
# PARTICULARS: CFBE41o-F508delCFTR-HRP cells; with co-corrector (2 μM of 3-[(2R,4R)-4-({[1-(2,2-difluoro-1,3-benzodioxol-5-yl)cyclopropyl]carbonyl}amino)-7-methoxy-3,4-dihydro-2H-chromen-2-yl]benzoic acid); read-out: EC50 (with co-corrector)

Field EC50 (entry COc1ncc(C2CCC2)cc1CO[C@H]1[C@H](C(C)(C)C)[C@@H](C(=O)O)N(C(=O)C2CCCCC2)[C@H]1c1ccccc1Br ) reads 1000 to 10000 nM

Kindly note the recorded EC50 for COc1ncc(C2CCC2)cc1CO[C@H]1[C@H](C(C)(C)C)[C@@H](C(=O)O)N(C(=O)O[C@H](C)C(F)(F)F)[C@H]1c1cccnc1OC(C)C , which is < 1000 nM

Just so you know, measured EC50 for COc1cccc(S(=O)(=O)N2[C@H](C(=O)O)[C@@H](C(C)(C)C)[C@H](OCc3cc(C4CCC4)cnc3OC)[C@@H]2c2ccccc2C2CC2)n1 came out at 1000 to 10000 nM

Given item COc1ncc(C(F)(F)F)cc1CO[C@H]1[C@H](C(C)(C)C)[C@@H](C(=O)O)N(C(=O)OC(C)C)[C@H]1c1cccc(C(C)(C)C)c1 , the value recorded as its EC50 is < 1000 nM

Kindly note the recorded EC50 for COc1ncc(C(F)(F)F)cc1CO[C@H]1[C@H](C(C)(C)C)[C@@H](C(=O)O)N(C(=O)[C@@H]2CCCCO2)[C@H]1c1ccccc1-c1ccoc1 , which is 1000 to 10000 nM

# EC50 (molecule: COc1ccc(C(C)(C)C)cc1CO[C@H]1[C@H](C(C)(C)C)[C@@H](C(=O)O)N(C(=O)OC(C)C)[C@H]1c1cccnc1OC(C)C ) is 1000 to 10000 nM

---

# TESTED TARGET: F508delCFTR (Homo sapiens, UniProt P13569, DEL508-508)
# Construct: expressed in transfected cells; host or cells: CFBE41o- (human lung derived epithelial cell line), doxycycline-inducible expression
# EXPERIMENT: Cell Surface Expression-Horse Radish Peroxidase (CSE-HRP) assay;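 for Maximum % activity (with co-corrector): % of on-plate positive control (2 µM of the co-corrector compound) after DMSO subtraction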
# Assay type: cell-based
# PARTICULARS: CFBE41o-F508delCFTR-HRP cells; with co-corrector (2 μM); normalized to on-plate positive control; highest concentration 20 μM
READOUT: Maximum % activity (with co-corrector)

smiles_str=COc1ncc(C(F)(F)F)cc1CO[C@H]1[C@H](C(C)(C)C)[C@@H](C(=O)O)N(C(=O)[C@@H]2CCCCO2)[C@H]1c1ccccc1-c1ccccc1C tested_target="F508delCFTR (Homo sapiens, UniProt P13569, DEL508-508)" result="+++ (≥350)"
smiles_str=COc1ncc(C2CCC2)cc1CO[C@H]1[C@H](C(C)(C)C)[C@@H](C(=O)O)N(C(=O)[C@@H]2CCCCO2)[C@H]1c1ccccc1C tested_target="F508delCFTR (Homo sapiens, UniProt P13569, DEL508-508)" result="+++ (≥350)"
